experimental.target: HIV Env of isolate 1056_10_TA11_1826 (clade B) (HIV)
method.notes: cell-based or functional assay
IC50 (µg/ml) with constrains: recorded values
Please report the result as a number followed by the unit.

The following binders have reported results that may help.
ePGDM5 (antibody, V domains shown) VH: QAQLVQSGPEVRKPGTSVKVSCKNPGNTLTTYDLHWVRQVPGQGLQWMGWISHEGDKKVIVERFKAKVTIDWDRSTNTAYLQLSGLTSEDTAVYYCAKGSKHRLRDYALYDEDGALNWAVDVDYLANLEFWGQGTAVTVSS VL: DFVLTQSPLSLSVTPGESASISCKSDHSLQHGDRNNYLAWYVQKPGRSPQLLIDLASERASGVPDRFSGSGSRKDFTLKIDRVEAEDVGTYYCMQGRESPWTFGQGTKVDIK : 0.893 µg/mL
ePGDM13 (antibody, V domains shown) VH: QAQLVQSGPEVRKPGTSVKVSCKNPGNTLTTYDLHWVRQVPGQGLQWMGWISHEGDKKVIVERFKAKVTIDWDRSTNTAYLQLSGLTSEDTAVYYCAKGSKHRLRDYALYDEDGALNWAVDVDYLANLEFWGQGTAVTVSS VL: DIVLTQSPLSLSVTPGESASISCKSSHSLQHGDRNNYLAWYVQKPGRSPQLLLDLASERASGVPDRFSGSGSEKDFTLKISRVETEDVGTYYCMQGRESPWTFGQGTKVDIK : 1.51 µg/mL

Pending binder:
Req: # query: IC50 (µg/ml) with constrains of entry PGDM1400 (antibody, V domains shown) VH: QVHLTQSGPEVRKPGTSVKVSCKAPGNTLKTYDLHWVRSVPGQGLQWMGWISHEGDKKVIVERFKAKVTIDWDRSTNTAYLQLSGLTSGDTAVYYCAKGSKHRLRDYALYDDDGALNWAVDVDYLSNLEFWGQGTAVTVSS VL: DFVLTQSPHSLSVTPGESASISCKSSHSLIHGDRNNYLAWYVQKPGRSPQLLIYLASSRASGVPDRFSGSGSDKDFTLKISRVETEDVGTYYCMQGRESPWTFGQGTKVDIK
Resp: 3.38 µg/mL

Where these numbers come from: patent US20230134571A1
